Target: T1, human Factor XIIa-alpha (human, UniProt P00748 20-615)
T1 sequence: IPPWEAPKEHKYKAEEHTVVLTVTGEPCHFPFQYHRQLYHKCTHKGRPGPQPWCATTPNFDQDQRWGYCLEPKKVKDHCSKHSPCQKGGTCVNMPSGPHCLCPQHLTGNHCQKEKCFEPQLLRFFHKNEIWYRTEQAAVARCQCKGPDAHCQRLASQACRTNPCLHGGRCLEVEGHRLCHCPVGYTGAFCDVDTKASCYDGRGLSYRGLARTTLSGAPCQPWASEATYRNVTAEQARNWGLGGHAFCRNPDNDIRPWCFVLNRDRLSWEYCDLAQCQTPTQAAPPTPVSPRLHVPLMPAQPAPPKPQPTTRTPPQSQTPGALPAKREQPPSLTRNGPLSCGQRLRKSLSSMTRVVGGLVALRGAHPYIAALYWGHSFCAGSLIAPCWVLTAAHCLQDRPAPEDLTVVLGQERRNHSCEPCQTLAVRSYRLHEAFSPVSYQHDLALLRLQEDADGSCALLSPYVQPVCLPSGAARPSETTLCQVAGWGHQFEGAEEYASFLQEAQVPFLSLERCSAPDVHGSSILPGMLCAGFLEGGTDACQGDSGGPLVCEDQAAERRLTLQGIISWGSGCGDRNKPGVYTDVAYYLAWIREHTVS
Assay: cell-based or functional assay
parameter.measured: % Inhibition, ratio FXIIa-alpha:Antibody 1:0.1 (%)
Give just the number in %; leave the unit off.

VR24 (antibody, V domains shown) VH: EVQLLESGGGLVQPGGSLRLSCAASGFTFSKYIMQWVRQAPGKGLEWVSGIRPSGGTTVYADSVKGRFTISRDNSKNTLYLQMNSLRAEDTAVYYCARALPRSGYLISPHYYYYALDVWGQGTTVTVSS VL: QSVLTQPPSASGTPGQRVTISCSGSSEMTVHHYVYWYQQLPGTAPKLLIYSNNQRPSGVPDRFSGSKSGTSASLAISGLRSEDEADYYCAAWDASLRGVFGGGTKLTVLG | 34.5
VR110 (antibody, V domains shown) VH: EVQLLESGGGLVQPGGSLRLSCAASGFTFSKYIMQWVRQAPGKGLEWVSGIDMPTKGTVYADSVKGRFTISRDNSKNTLYLQMNSLRAEDTAVYYCARALPRSGYLISPHYYYYALDVWGQGTTVTVSS VL: QSELTQPPSASGTPGQRVTISCSGSSSNIGRNYVYWYQQVPGTAPKLLIYSNNQRPSGVPDRFSGSKSGTSASLVISGLRSEDEADYYCAAWDASLRGVFGGGTKLTVLG | 33.7
VR115 (antibody, V domains shown) VH: EVQLLESGGGLVQPGGSLRLSCAASGFTFSKYIMQWVRQAPGKGLEWVSGIDIPTKGTVYADSVKGRFTISRDNSKNTLYLQMNSLRAEDTAVYYCARALPRSGYLISPHYYYYALDVWGQGTTVTVSS VL: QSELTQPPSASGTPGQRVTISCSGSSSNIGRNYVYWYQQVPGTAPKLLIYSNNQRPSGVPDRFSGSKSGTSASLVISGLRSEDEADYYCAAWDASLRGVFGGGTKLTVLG | 39.4
monoclonal antibody 3F7 (fully human IgG4/lambda) (antibody, V domains shown, also called 3F7 mAb; MAb 3F7) VH: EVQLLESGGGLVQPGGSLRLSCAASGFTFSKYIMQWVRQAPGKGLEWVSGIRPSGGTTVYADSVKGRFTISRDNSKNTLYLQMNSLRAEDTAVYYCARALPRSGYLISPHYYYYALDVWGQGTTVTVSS VL: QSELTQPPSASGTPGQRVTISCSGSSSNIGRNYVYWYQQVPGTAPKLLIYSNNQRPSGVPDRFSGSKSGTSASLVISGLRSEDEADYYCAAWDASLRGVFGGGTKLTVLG | 35.5

Continue with the next binder.
[ask] Request the reported % Inhibition, ratio FXIIa-alpha:Antibody 1:0.1 associated with VR112 (antibody, V domains shown) VH: EVQLLESGGGLVQPGGSLRLSCAASGFTFSKYIMQWVRQAPGKGLEWVSGINVPVQGTVYADSVKGRFTISRDNSKNTLYLQMNSLRAEDTAVYYCARALPRSGYLISPHYYYYALDVWGQGTTVTVSS VL: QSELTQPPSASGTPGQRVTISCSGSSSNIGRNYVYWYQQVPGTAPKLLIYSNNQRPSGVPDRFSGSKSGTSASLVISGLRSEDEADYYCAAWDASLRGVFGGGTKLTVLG
[reply] 39.9
